experiment-description: Inhibition of human recombinant caspase-3 expressed in Saccharomyces cerevisiae CG379 assessed as growth stimulation after 2 days
measurement-type: pIC50
Numbers only, as −log10 of the molar value.

Look up pIC50: CC(C)[C@H](NC(=O)OCc1ccccc1)C(=O)N[C@H](C=CS(C)(=O)=O)CC(=O)O
4.45
